System: CCD-18Co
Experiment: Cell-based assay, anti-proliferative activity (Cell Counting Kit-8, 72 hours)
Conditions: Homo sapiens; CCD-18Co cells, Cell Counting Kit-8, 72 hours; read-out: IC50 (μM) CCD-18Co
Counter-ions that a name gives are not always drawn.
Exam item: assign condition met to entries whose IC50 is below 5 µM and condition not met to entries at or above 5 µM. Note that a value of exactly 5 µM receives condition not met.

{"molecule": "COc1cc(OC)c(-c2cn3cc(CCCCN)c(N4CCOCC4)cc3n2)cc1Cl", "assigned label": "condition not met"}
{"molecule": "COc1cc(OC)c(-c2cn3ccc(N4CCN(S(=O)(=O)N(C)C)CC4)cc3n2)cc1Cl", "assigned label": "condition met"}
{"molecule": "CCOC(=O)CCN1CCN(c2ccn3cc(-c4cc(Cl)c(OC)cc4OC)nc3c2)CC1", "assigned label": "condition not met"}
{"molecule": "COc1cc(OC)c(-c2cn3ccc(N4CCCC4)nc3n2)cc1Cl [Example 9, hydrobromide]", "assigned label": "condition not met"}
{"molecule": "COc1cc(OC)c(-c2cn3ccc(C4=CCN(CC#N)CC4)cc3n2)cc1Cl", "assigned label": "condition met"}
{"molecule": "COc1cc(OC)c(-c2cn3ccc(NCCNC(=O)OC(C)(C)C)nc3n2)cc1Br", "assigned label": "condition not met"}
{"molecule": "COc1cc(OC)c(-c2cn3ccc(N4CCN(CCN5CCN(C(=O)OC(C)(C)C)CC5)CC4)cc3n2)cc1Cl", "assigned label": "condition met"}
{"molecule": "COc1cc(OC)c(-c2cn3ccc(N(C)C)cc3n2)cc1Cl [Example 22, hydrobromide]", "assigned label": "condition met"}
{"molecule": "COc1cc(OCCCN(C)C)c(-c2cn3ccc(N4CCCC4)cc3n2)cc1Cl", "assigned label": "condition met"}
{"molecule": "COc1cc(OC(C)C)c(-c2cn3ccc(N4CCCC4)cc3n2)cc1Br [Example 53, hydrobromide]", "assigned label": "condition met"}
{"molecule": "COc1cc(OC)c(-c2cn3ccc(N4CCN(S(=O)(=O)Cc5ccccc5)CC4)cc3n2)cc1Cl", "assigned label": "condition met"}
{"molecule": "COc1cc(OCCCN(C)C)c(-c2cn3ccc(N4CCOCC4)cc3n2)cc1Cl", "assigned label": "condition not met"}
{"molecule": "COc1cc(OC)c(-c2cn3ccc(NCCN4CCOCC4)cc3n2)cc1Cl", "assigned label": "condition not met"}
{"molecule": "COc1cc(OC)c(-c2cn3ccc(C4=CCNCC4)cc3n2)cc1Cl", "assigned label": "condition met"}
{"molecule": "COc1cc(OCC2CC2)c(-c2cn3ccc(N4CCOCC4)cc3n2)cc1Cl", "assigned label": "condition met"}
{"molecule": "COc1cc(OC)c(-c2cn3ccc(N4CCN(CCN5CCOCC5)CC4)cc3n2)cc1Br", "assigned label": "condition not met"}
{"molecule": "COc1cc(OCCCN(C)C)c(-c2cn3ccc(N4CCC(NC(=O)OC(C)(C)C)CC4)cc3n2)cc1Cl", "assigned label": "condition met"}

----------
Target: SUV39H2 (Homo sapiens (Human), UniProt Q9H5I1)
Sequence (Q9H5I1 whole entry): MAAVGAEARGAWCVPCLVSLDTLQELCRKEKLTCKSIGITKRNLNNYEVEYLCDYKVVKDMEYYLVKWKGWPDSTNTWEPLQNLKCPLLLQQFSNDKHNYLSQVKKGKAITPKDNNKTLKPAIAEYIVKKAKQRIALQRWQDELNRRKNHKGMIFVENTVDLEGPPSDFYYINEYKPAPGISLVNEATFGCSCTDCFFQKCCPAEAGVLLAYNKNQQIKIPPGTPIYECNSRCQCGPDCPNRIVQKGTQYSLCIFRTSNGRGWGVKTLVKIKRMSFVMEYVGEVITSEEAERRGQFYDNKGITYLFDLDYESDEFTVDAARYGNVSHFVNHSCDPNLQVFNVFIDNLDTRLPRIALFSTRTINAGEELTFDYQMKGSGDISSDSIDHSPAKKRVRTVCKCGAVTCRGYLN
Assay: biochemical
Format: biochemical
Conditions: 3H-SAM 100 nM, H3 Histone Peptide 350 nM, room temperature 3 hours
Structures can show the parent of a compound that is named as a salt.
experimental readout: IC50 (nM)

{"molecule": "COc1cc(OC)c(-c2cn3ccc(N[C@H]4CC[C@@H](NC(=O)c5ccccc5O)CC4)cc3n2)cc1Cl [Example 392, trifluoroacetate]", "recorded measurement": 52.7}
{"molecule": "COc1cc(OC)c(-c2cn3ccc(N4CCN(C(=O)c5ccccc5O)CC4)cc3n2)cc1Cl [Example 314]", "recorded measurement": 7.29}
{"molecule": "COc1cc(OC)c(-c2cn3ccc(N4CCN(S(C)(=O)=O)C(C)C4)cc3n2)cc1Cl (stereo not shown) [Example 312]", "recorded measurement": 3.81}
{"molecule": "COc1cc(OC)c(-c2cn3ccc(N[C@H]4CC[C@H](NCc5cccc(C#N)c5)CC4)cc3n2)cc1Cl [Example 397]", "recorded measurement": 64.6}

----------
Biological target: UniProt Q9H5I1
Conditions: read-out: IC50 (μM) Suv 39H2 assay; enzyme assay
Structures can show the parent of a compound that is named as a salt.
Listed compounds paired with reported log10(IC50)
experimental readout: log10(IC50) (log10 of the value in µM)

{"compound": "COc1cc(OC)c(-c2cn3ccc(NC(=O)CCNC(=O)OC(C)(C)C)cc3n2)cc1Cl", "experimental readout": "log10(IC50)", "recorded measurement": -1.20}
{"compound": "COc1cc(OC2CCCC2)c(-c2cn3ccc(N4CCOCC4)cc3n2)cc1Cl", "experimental readout": "log10(IC50)", "recorded measurement": -1.23}
{"compound": "COc1cc(OC)c(-c2cn3ccc(N4CCN(C(=O)OC(C)(C)C)C(C)C4)cc3n2)cc1Cl (stereo not drawn)", "experimental readout": "log10(IC50)", "recorded measurement": -2.48}
{"compound": "COc1cc(OC)c(-c2cn3ccc(-c4cncc(N)c4)cc3n2)cc1Cl", "experimental readout": "log10(IC50)", "recorded measurement": -1.40}
{"compound": "COc1cc(OC)c(-c2cn3ccc(C4CCC(N)CC4)cc3n2)cc1Cl (stereo not drawn)", "experimental readout": "log10(IC50)", "recorded measurement": -1.19}
{"compound": "COc1cc(OC)c(-c2cn3ccc(C4=CCNCC4)cc3n2)cc1Cl", "experimental readout": "log10(IC50)", "recorded measurement": -1.21}
{"compound": "COc1cc(OC)c(-c2cn3cnc(N)cc3n2)cc1Cl", "experimental readout": "log10(IC50)", "recorded measurement": -1.27}
{"compound": "COc1cc(OC)c(-c2cn3ccc(N4CCN(S(=O)(=O)N(C)C)CC4)cc3n2)cc1Cl", "experimental readout": "log10(IC50)", "recorded measurement": -1.87}
{"compound": "COc1cc(OC)c(-c2cn3ccc(N4CCN(CCN5CCNCC5)CC4)cc3n2)cc1Cl", "experimental readout": "log10(IC50)", "recorded measurement": -2.11}
{"compound": "COc1cc(OC)c(-c2cn3ccc(N4CCN(CCN(C)C)CC4)cc3n2)cc1Cl", "experimental readout": "log10(IC50)", "recorded measurement": -2.05}
{"compound": "COc1cc(OC)c(-c2cn3ccc(N4CCN(CCN5CCOCC5)CC4)cc3n2)cc1Br", "experimental readout": "log10(IC50)", "recorded measurement": -2.46}
{"compound": "CCOC(=O)N1CCN(c2ccn3cc(-c4cc(Cl)c(OC)cc4OC)nc3c2)CC1", "experimental readout": "log10(IC50)", "recorded measurement": -1.94}
{"compound": "COc1cc(OC)c(-c2cn3ccc(N4CCC(CNC(=O)OC(C)(C)C)CC4)nc3n2)cc1Cl", "experimental readout": "log10(IC50)", "recorded measurement": -1.43}
{"compound": "COc1cc(OC)c(-c2cn3ccc(N4CCC(NC(=O)OC(C)(C)C)C4)nc3n2)cc1C#N (stereo not drawn)", "experimental readout": "log10(IC50)", "recorded measurement": -1.52}
{"compound": "COc1cc(C)c(-c2cn3ccc(N4CCN(S(=O)(=O)C5CC5)C(CO)C4)cc3n2)cc1Cl (stereo not drawn)", "experimental readout": "log10(IC50)", "recorded measurement": -1.34}
{"compound": "COc1cc(OC)c(-c2cn3ccc(N4CCN(c5ccnc(N6CCCCC6)n5)CC4)cc3n2)cc1Cl", "experimental readout": "log10(IC50)", "recorded measurement": -1.22}
{"compound": "COC(=O)N1CCN(c2ccn3cc(-c4cc(Cl)c(OC)cc4OC)nc3c2)CC1", "experimental readout": "log10(IC50)", "recorded measurement": -2.22}
{"compound": "COc1cc(OC)c(-c2cn3ccc(N4CCOCC4)cc3n2)cc1C", "experimental readout": "log10(IC50)", "recorded measurement": -1.68}
{"compound": "COc1cc(OC)c(-c2cn3ccc(N4CCC(NC(=O)NCCN)C4)cc3n2)cc1Cl (stereo not drawn)", "experimental readout": "log10(IC50)", "recorded measurement": -2.29}
{"compound": "COc1cc(OCCCN(C)C)c(-c2cn3ccc(N4CCNCC4)cc3n2)cc1Cl", "experimental readout": "log10(IC50)", "recorded measurement": -1.60}
{"compound": "COc1cc(OC)c(-c2cn3ccc(N4CCC(NS(=O)(=O)C5CC5)CC4)cc3n2)cc1Cl", "experimental readout": "log10(IC50)", "recorded measurement": -1.85}
{"compound": "COc1cc(OC)c(-c2cn3ccc(N4CCCN(S(=O)(=O)N(C)C)CC4)cc3n2)cc1Cl", "experimental readout": "log10(IC50)", "recorded measurement": -2.17}
{"compound": "COc1cc(OC)c(-c2cn3ccc(NCCNC(=O)OC(C)(C)C)nc3n2)cc1Br", "experimental readout": "log10(IC50)", "recorded measurement": -1.05}
{"compound": "COc1cc(OC)c(-c2cn3ccc(N4CCN(CCCN(C)C)CC4)cc3n2)cc1Br", "experimental readout": "log10(IC50)", "recorded measurement": -2.52}
{"compound": "COc1cc(OC)c(-c2cn3ccc(N4CCN(CCNC(=O)OC(C)(C)C)CC4)cc3n2)cc1Cl [Example 28, dihydrochloride]", "experimental readout": "log10(IC50)", "recorded measurement": -1.68}
{"compound": "CCOC(=O)CCN1CC=C(c2ccn3cc(-c4cc(Cl)c(OC)cc4OC)nc3c2)CC1", "experimental readout": "log10(IC50)", "recorded measurement": -1.24}
{"compound": "COC(=O)Nc1ccn2cc(-c3cc(Cl)c(OC)cc3OC)nc2c1", "experimental readout": "log10(IC50)", "recorded measurement": -1.62}
{"compound": "COc1cc(OC)c(-c2nc3cc(N4CCN(C(=O)OC(C)(C)C)CC4)ccn3c2Br)cc1Cl", "experimental readout": "log10(IC50)", "recorded measurement": -1.57}
{"compound": "COc1cc(OC)c(-c2cn3ccc(N4CC[C@H](NC(=O)OC(C)(C)C)C4)nc3n2)cc1Cl", "experimental readout": "log10(IC50)", "recorded measurement": -1.77}
{"compound": "COc1cc(OC)c(-c2cn3ccc(NC(=O)CN)cc3n2)cc1Cl", "experimental readout": "log10(IC50)", "recorded measurement": -1.51}
{"compound": "COc1cc(OC)c(-c2cn3ccc(N4CCC(NC(=O)OC(C)(C)C)CC4)nc3n2)cc1Cl", "experimental readout": "log10(IC50)", "recorded measurement": -1.26}
{"compound": "COc1cc(OC)c(-c2cn3ccc(NC(=O)[C@H](C(C)C)N(C)C)cc3n2)cc1Cl", "experimental readout": "log10(IC50)", "recorded measurement": -1.02}
{"compound": "COc1cc(OC)c(-c2cn3ccc(N4CCC(CN(C)C)CC4)cc3n2)cc1Cl", "experimental readout": "log10(IC50)", "recorded measurement": -2.11}

Reference source: patent US10508109B2
